# TESTED ON: Human 5-HT1A Receptor (Homo sapiens, UniProt P08908)
# Construct: expressed in transfected cells; host or cells: CHO cells
# Sequence (P08908 whole entry): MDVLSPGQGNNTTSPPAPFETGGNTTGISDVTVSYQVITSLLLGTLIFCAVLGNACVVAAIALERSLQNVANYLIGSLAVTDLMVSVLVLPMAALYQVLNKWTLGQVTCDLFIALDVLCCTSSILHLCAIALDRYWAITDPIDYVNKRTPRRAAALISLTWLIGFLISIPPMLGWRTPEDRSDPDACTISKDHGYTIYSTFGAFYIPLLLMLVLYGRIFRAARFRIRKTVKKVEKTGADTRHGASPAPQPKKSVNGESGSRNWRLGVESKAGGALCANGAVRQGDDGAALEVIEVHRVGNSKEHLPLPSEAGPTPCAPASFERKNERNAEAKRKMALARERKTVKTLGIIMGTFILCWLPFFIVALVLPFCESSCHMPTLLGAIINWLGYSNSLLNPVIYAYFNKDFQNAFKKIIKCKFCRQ
# ASSAY DETAILS: cAMP RIA in human 5-HT1A receptor cell line
# Assay type: cell-based
# COND: superscript a; forskolin stimulated cAMP, CHO cells; read-out: c-AMP, (EC50)^a
Where a name gives a salt, the structure may show the parent alone.
The following compounds are shown together with reported pEC50 values.
In simple prose, pEC50 is minus the logarithm base ten of a concentration in moles per litre.

Reference set (3 entries):
| COMPOUND | pEC50 |
| --- | --- |
| Cc1ccc2c3c(ccc2n1)OC[C@H](CN[C@@H]1CCc2c([nH]c4ccccc24)C1)O3 (single isomer, unassigned) [Example 44, dihydrochloride] | 6.65 |
| Cc1ccc2c3c(ccc2n1)OC[C@H](CNC1CCc2c([nH]c4ccc(F)cc24)C1)O3 (mixture of isomers) | 6.81 |
| Cc1ccc2c3c(ccc2n1)OC[C@H](CNC1CCc2c([nH]c4ccccc24)C1)O3.Cl.Cl (mixture of isomers) [Example 43, dihydrochloride] | 6.63 |

Query block: Report pEC50 for Cc1ccc2c3c(ccc2n1)OC[C@H](CN(C[C@@H]1CCc2[nH]c4ccc(F)cc4c2C1)C1CCC1)O3 [Example 56, dihydrochloride dihydrate] please.
Result block: 6.81

Query block: Fill blank: measured pEC50 of the compound Cc1ccc2c3c(ccc2n1)OC[C@H](CN[C@@H]1CCc2c([nH]c4ccc(F)cc24)C1)O3 (single isomer, unassigned) [Example 47, dihydrochloride] is ____.
Result block: 6.52

Query block: What value of pEC50 has been reported for the following compound? Cc1ccc2c3c(ccc2n1)OC[C@H](CN(C[C@@H]1CCc2[nH]c4ccc(F)cc4c2C1)C1CCCC1)O3 [Example 59, monohydrochloride monohydrate]
Result block: 6.37
